target-or-test-system: glucagon receptor (UniProt P47871 26-477, limits assumed)
Sequence (P47871 26-477 limits assumed): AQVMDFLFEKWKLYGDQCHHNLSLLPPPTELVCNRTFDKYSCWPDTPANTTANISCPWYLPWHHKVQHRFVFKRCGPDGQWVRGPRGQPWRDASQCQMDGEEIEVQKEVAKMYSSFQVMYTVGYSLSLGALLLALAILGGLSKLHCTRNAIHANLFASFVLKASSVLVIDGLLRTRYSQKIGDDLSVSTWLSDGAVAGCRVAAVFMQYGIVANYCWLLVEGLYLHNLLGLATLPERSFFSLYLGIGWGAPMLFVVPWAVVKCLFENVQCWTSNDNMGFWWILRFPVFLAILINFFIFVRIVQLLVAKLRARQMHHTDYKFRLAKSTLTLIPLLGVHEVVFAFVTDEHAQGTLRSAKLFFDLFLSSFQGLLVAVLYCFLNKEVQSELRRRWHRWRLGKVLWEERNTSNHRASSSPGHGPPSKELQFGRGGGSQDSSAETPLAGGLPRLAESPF
protocol: cell-based or functional assay
Numbered stars: 1 amine (or outer) side, 2 acyl side, 3 side chain; on linkers, the order of the positions; unused ones are H or OH. Square brackets hold non-standard residues; d marks the D form. Side chains are listed from the residue outwards. Ends that are not written are not given here. * marks the point of attachment. C18 diacid = O=C(O)CCCCCCCCCCCCCCCCC(=O)*; pY = N[C@@H](Cc1ccc(OP(=O)(O)O)cc1)C(=O)O; γGlu = O=C(O)[C@H](CCC(=O)[*:2])N[*:1]; AEEA = NCCOCCOCC(=O)O
measured-parameter: Assay (I) Glucagon [EC50] (nM)

HSQGTFTSDYSKYLDTRRAQDFVK([AEEA-AEEA-γGlu-C18 diacid])WLLST    0.016
HSQGTFTSDYSKYLDSRRAQDFVQWLLNTK (C-terminal Lys (position 30): N-epsilon acylated with the substituent printed in the name) [N^α([Leu^27]Glucagonyl) …]    0.019
H[dS]QGTFTSDYSKYLDERRAQDFVK([AEEA-AEEA-γGlu-C18 diacid])WLLNT    0.149
HSQGTFTSDYSKYLDSRRAQDFVQWLLNK([γGlu-γGlu-AEEA-AEEA-γGlu-C18 diacid])    0.095
HSQGTFTSDYSKYLDSKKAQEFVK([AEEA-AEEA-γGlu-C18 diacid])WLLST    0.009
HSQGTFTSDYSKYLDSRQAQEFVK([AEEA-AEEA-γGlu-C18 diacid])WLLNT    0.15
HSQGTFTSDYSKYLDSRK([AEEA-AEEA-γGlu-C18 diacid])AQDFVQWLLNT    0.206
HSQGTFTSDYSKYLDSRRAQDFVK([AEEA-AEEA-γGlu-C18 diacid])HLLNT    0.194
HSQGTFTSDYSKYLDSRRAQEFVK([AEEA-AEEA-γGlu-C18 diacid])RLLNT    0.074
HSQGTFTSDYSKYLDSRRAQDFVQWLLNK([AEEA-AEEA-γGlu-C18 diacid]) (not fully specified; printed as N^ε29-([2-[2-[2-[[(4S)-5-hydroxy-4-[(18-hydroxy-18-oxooctadecanoyl)amino]5-oxopentanoyl]amino]ethoxy]ethoxy]acetyl]amino]ethoxy]ethoxy]acetyl]])[Leu^27,Lys^29]Glucagon)    0.046
H[dS]QGTFTSDYSKYLDSRRAKDFVQWLMNTK-NH2 (not fully specified)    0.54
HSQGTFTSDYSKYLDSRRAQDFVQWLLK([γGlu-γGlu-AEEA-AEEA-γGlu-C18 diacid])T    0.055
HSQGTFTSDYSKYLDSK([AEEA-AEEA-γGlu-C18 diacid])RAQDFVQWLLNT    0.094
HSQGTFTSDYSKYLDSRRAQDFVK([AEEA-AEEA-γGlu-C18 diacid])[pY]LLNT    0.171
HSQGTFTSDYSKYLDSRRAQDFVK([AEEA-AEEA-γGlu-C18 diacid])WLLST    0.02
HSQGTFTSDYSKYLDSKRAQEFVK([AEEA-AEEA-γGlu-C18 diacid])WLLNT    0.022
HSQGTFTSDYSKYLDK([AEEA-AEEA-γGlu-C18 diacid])RRAQDFVQWLLNT    0.003
HSQGTFTSDYSKYLDSRRAQDFVQWLLK([AEEA-AEEA-γGlu-C18 diacid])T    0.022
HSQGTFTSDYSKYLDSRRAQDFVQWLLNTK (C-terminal Lys (position 30): N-epsilon acylated with the substituent printed in the name) [N^α-([Leu^27]Glucagonyl) …]    0.056
HSQGTFTSDYSKYLDSKKAQEFVK([AEEA-AEEA-γGlu-C18 diacid])WLLNT    0.019
